Data origin: the Human Domainome abundance scans (Beltran et al. 2025)

B1: FERM and PDZ domain-containing protein 4, residues 75 to 154; numbered along this chain, Q14CM0 (parent)
chain: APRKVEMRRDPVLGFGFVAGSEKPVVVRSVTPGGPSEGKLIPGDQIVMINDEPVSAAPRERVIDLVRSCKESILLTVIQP

- Variants of: B1
- ASSAY_PROCEDURE: abundance fitness (aPCA) (normalised: wild type 0, dead -1); higher = more abundant; growth selection in yeast, the domain comes from the species named
- ASSAY_CONDITIONS: Homo sapiens
PROPERTY_MEASURED: abundance fitness
Give bare numbers.

MUTATION_DESCRIPTOR: P11W
PROPERTY_MEASURED: abundance fitness
VALUE_OBSERVED: -0.405

MUTATION_DESCRIPTOR: E60D
PROPERTY_MEASURED: abundance fitness
VALUE_OBSERVED: -0.049

For the 7 variants below, give their abundance fitness values.
1. E60G
2. P53M
3. G33E
4. E6C
5. G20H
6. A19E
7. V27I

1: -0.025; 2: -0.015; 3: -0.112; 4: -0.065; 5: -0.029; 6: -0.075; 7: -0.07
